Where do these numbers come from? They come from patent US20160376353A1.

target: T1, Biotin-labeled N2 peptide (also: biotin label, position not given here); test: SPR (BIACORE X100), biotin-N2 peptide on NeutrAvidin chip, antibody in solution; kd/ka (monovalent)
T1 construct: also called immobilized N2
T1 peptide: LMKNMDPLNDNV
Ends that are not written are not given here.
quantity-kind: Kd

[Q] Bench note: what Kd did H2-21G6 / L2-21G6 (Table 2, constant region not stated) (antibody, V domains shown, human kappa light chain; also called H2/L2) VH: QVQLVQSGAEVKKPGASVKVSCKASGYTFTSYYMYWVRQAPGQGLEWIGGINPSNGGTNFNEKFKSKATMTVDKSTSTAYMELRSLRSDDSAVYYCTRWGYDREWFAYWGQGTLVTVSS VL: DIVMTQSPLSLPVTPGEPASISCRSSKSLLHSNGNTYLYWFLQKPGQSPQLLIYRMSNLASGVPDRFSGSGSGTDFTLKISRVEAEDVGVYYCMQHLEYPFTFGQGTKLEIKR show?
[A] 280 to 420 nM
